B1: IQUB (parent)
chain: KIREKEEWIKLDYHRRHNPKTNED

Variants of: B1
assay_info: protein stability index of a GFP-peptide fusion (GPS, HEK-293T) (PSI 1-6); higher = more stable;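 further: lentivirally expressed fusions sorted by FACS into six bins by GFP to DsRed ratio, PSI derived from sequencing read proportions per bin multiplied by bin number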
conditions_used: c terminus: a fixed tail appended
Some variants, each annotated with its measured protein stability index.
No unit in the answer, only the number.

Check out these entries, answers already filled in.
variant_key=E6T measured_number=4.41
variant_key=N18Y measured_number=3.71
variant_key=P19W measured_number=4.33

**Q:** For the variant "K1S" , what protein stability index is on record?
**A:** 4.62

**Q:** For the variant "D12P" , what protein stability index is on record?
**A:** 4.41

**Q:** For the variant "H14G" , what protein stability index is on record?
**A:** 4.88

**Q:** For the variant "K10T" , what protein stability index is on record?
**A:** 4.97

**Q:** For the variant "P19A" , what protein stability index is on record?
**A:** 4.59
